System: M14 melanoma
assayRemarks: NCI tumour cell line growth inhibition, 48 h; in the data active means GI50 below about 0.43 µM; inactive means the rest
Classes used: active, inactive

{"columns": ["molecule", "answerLabel"],
 "data": [
  ["O=C(O)CN(CCN(CC(=O)O)CC(=O)O)CCN(CC(=O)O)CC(=O)O", "inactive"],
  ["CCCN1CCC(Oc2cc(Nc3nc(Nc4cccc(F)c4C(N)=O)c4cc[nH]c4n3)c(OC)cc2Cl)CC1", "inactive"],
  ["CN1CCN(CCCOC(=O)c2c3c(n4ccccc24)C(=O)c2ncccc2C3=O)CC1", "active"],
  ["c1ccc2[nH]c(-c3ccc(Nc4nc(N5CCCC5)nc5[nH]ncc45)cc3)nc2c1", "active"],
  ["[O-]c1ccccc1C=NCCN=Cc1ccccc1[O-].[O]=[U+2]=[O]", "inactive"],
  ["COc1cccc2c1C(=O)c1c(O)c3c(c(O)c1C2=O)C[C@@](O)(/C(C)=N/NC(=O)c1cccc([N+](=O)[O-])c1)C[C@@H]3OC1CC(N)C(O)C(C)O1 (stereo partly drawn)", "active"],
  ["CCOc1cc(/C=C/C(=O)CC(=O)/C=C/c2ccc(OC(=O)CNc3nc4ccc(OC)cc4s3)c(OCC)c2)ccc1OC(=O)CNc1nc2ccc(OC)cc2s1", "inactive"],
  ["Cc1cc[c]([Sb]2[O]C(CO)C(C(O)C(O)C(=O)O)[O]2)cc1 (stereo not drawn)", "inactive"]
]}

----------
Tested on: 786-0 renal
assayRemarks: NCI tumour cell line growth inhibition, 48 h
Recorded GI50 by entry
propertyLabel: GI50

{"columns": ["structureSmilesString", "propertyLabel", "reported"],
 "data": [
  ["CCCN1CCC(Oc2cc(Nc3nc(Nc4cccc(F)c4C(N)=O)c4cc[nH]c4n3)c(OC)cc2Cl)CC1", "GI50", "3.65 µM"],
  ["Cc1cc(NC(=O)NCCCOc2ccc(N3C(N)=NC(N)=NC3(C)C)cc2Cl)ccc1S(=O)(=O)F", "GI50", "2.46 µM"],
  ["C=C(C)[C@@H]1CC[C@]2(C(=O)OC)CC[C@]3(C)[C@H](CC[C@@H]4[C@@](C)(CCc5nn[nH]n5)[C@H](C(=C)C)CC[C@]43C)[C@@H]12", "GI50", "53.4 µM"],
  ["COc1cc2c(cc1OCCCCCOc1ccc(-c3nc4ccccc4s3)cc1)N=C[C@@H]1CCCN1C2=O", "GI50", "1.2 µM"]
]}

----------
Test system: HS 578T breast
assayRemarks: NCI tumour cell line growth inhibition, 48 h; in the data active means GI50 below about 0.43 µM; inactive means the rest
Possible outcomes: Yes (active), No (inactive)

{"columns": ["compound", "answerLabel"],
 "data": [
  ["CC(=O)Nc1ccc(CC[C@H]2CCC/C=C/[C@@H]3C[C@H](O)C[C@H]3[C@H](O)/C=C/C(=O)O2)cc1", "Yes"],
  ["CN1CCN(c2ccc3nc(-c4[nH]ncc4Nc4ncnc5[nH]ccc45)[nH]c3c2)CC1", "Yes"],
  ["COc1ccc(-c2nn3ncccc3c2-c2ccnc(Nc3ccc(F)c(F)c3)n2)cc1", "No"],
  ["COc1ccc2c(c1[N+](=O)[O-])CC[C@@H]1[C@@H]2CC[C@]2(C)C(=O)CC[C@@H]12", "No"],
  ["CCN(Cc1ccccc1)c1ccc(/C=C2\\COc3ccccc3C2=O)cc1", "No"],
  ["CCOC(=O)c1sc2nc(=S)[nH]c(NC(N)=S)c2c1C", "No"],
  ["COc1cccc2c1C(=O)c1c(O)c3c(c(O)c1C2=O)C[C@@](O)(/C(C)=N/NC(=O)c1cccc([N+](=O)[O-])c1)C[C@@H]3OC1CC(N)C(O)C(C)O1 (stereo partly drawn)", "No"],
  ["Cc1cc[c]([Sb]2[O]C(CO)C(C(O)C(O)C(=O)O)[O]2)cc1 (stereo not drawn)", "No"],
  ["Oc1ccc(CCNc2nc3ccccc3c3[nH]c4ccccc4c23)cc1O", "No"],
  ["C=CC(=O)N1CCN([C@@H](CC2CC2)c2ccc([C@H](C)Nc3ncc4c(n3)N(CC)C(=O)OC4)cc2)CC1", "No"],
  ["O=c1[nH]c(=O)n(Cc2ccc(C34CC5CC(CC(C5)C3)C4)c(O)c2)cc1F", "No"],
  ["CN(C)CCN1C(=O)c2cccc3cc(N)cc(c23)C1=O", "No"],
  ["COc1cc(-c2csc(NC(=O)Nc3ccc(Cl)cc3)n2)cc(OC)c1OC", "No"]
]}

----------
Tested on: HOP-92 NSCLC
assayRemarks: NCI tumour cell line growth inhibition, 48 h; in the data active = GI50 below about 0.43 µM; inactive = the rest
Possible outcomes: active, inactive

{"columns": ["molecule", "measuredTarget", "answerLabel"],
 "data": [
  ["COc1ccc(-c2nc(-c3nc4cc(Cl)c(Cl)cc4[nH]3)c3ccccn23)cc1", "HOP-92 NSCLC", "inactive"],
  ["CN1CCC2(CC1)C(=O)Nc1cc(NC(=O)c3ccc4c(c3)C[C@@H]3C(C)(C)[C@H](O)[C@H](F)C[C@@]3(C)O4)ccc12", "HOP-92 NSCLC", "inactive"],
  ["O=c1[nH]c(=O)n(Cc2ccc(C34CC5CC(CC(C5)C3)C4)c(O)c2)cc1F", "HOP-92 NSCLC", "inactive"],
  ["CCCCCOC(=O)c1c(C)[nH]c(/C=C2\\N=C(c3ccc[nH]3)C=C2OC)c1C", "HOP-92 NSCLC", "active"],
  ["Cc1cc(NC(=O)NCCCOc2ccc(N3C(N)=NC(N)=NC3(C)C)cc2Cl)ccc1S(=O)(=O)F", "HOP-92 NSCLC", "inactive"],
  ["Cc1ccc(/C=C/C(=O)c2ccc(F)cc2)s1", "HOP-92 NSCLC", "inactive"],
  ["O=C(Nc1ccccc1/C=C/c1n[nH]c2ccccc12)c1ccccc1", "HOP-92 NSCLC", "active"],
  ["COc1cc(-c2csc(NC(=O)Nc3ccc(Cl)cc3)n2)cc(OC)c1OC", "HOP-92 NSCLC", "inactive"],
  ["c1ccc2[nH]c(-c3ccc(Nc4nc(N5CCCC5)nc5[nH]ncc45)cc3)nc2c1", "HOP-92 NSCLC", "inactive"],
  ["CCN(Cc1ccccc1)c1ccc(/C=C2\\COc3ccccc3C2=O)cc1", "HOP-92 NSCLC", "inactive"],
  ["COc1cc2c(cc1OCCCCCOc1ccc(-c3nc4ccccc4s3)cc1)N=C[C@@H]1CCCN1C2=O", "HOP-92 NSCLC", "inactive"],
  ["Cc1cc[c]([Sb]2[O]C(CO)C(C(O)C(O)C(=O)O)[O]2)cc1 (stereo not drawn)", "HOP-92 NSCLC", "inactive"],
  ["CN1CCN(c2ccc3nc(-c4[nH]ncc4Nc4ncnc5[nH]ccc45)[nH]c3c2)CC1", "HOP-92 NSCLC", "active"],
  ["N#CSc1c[nH]c2ccc(/C=C/C(=O)/C=C(O)/C=C/c3ccc4[nH]cc(SC#N)c4c3)cc12", "HOP-92 NSCLC", "inactive"],
  ["CN(C)CCN1C(=O)c2cccc3cc(N)cc(c23)C1=O", "HOP-92 NSCLC", "inactive"],
  ["C=CC(=O)N1CCN([C@@H](CC2CC2)c2ccc([C@H](C)Nc3ncc4c(n3)N(CC)C(=O)OC4)cc2)CC1", "HOP-92 NSCLC", "inactive"],
  ["CCCCCCCCCCCC(c1ccccc1)[N+](C)(C)C (stereo not drawn)", "HOP-92 NSCLC", "inactive"],
  ["C=CCn1c(SCC(=O)Nc2ccc(C(=O)/C=C/c3cc(OC)c(OC)c(OC)c3)cc2)nnc1-c1cc(OC)c(OC)c(OC)c1", "HOP-92 NSCLC", "inactive"]
]}

----------
Below, each entry is listed with its recorded TGI.
Tested on: HS 578T breast
assayRemarks: NCI tumour cell line growth inhibition, 48 h

{"columns": ["compound", "unitOfMeasure", "censoringOperator", "TGI"],
 "data": [
  ["CC(C)CC(NC(=O)C(O)C(N)Cc1ccccc1)C(=O)O (centres undefined)", "µM", ">", 100],
  ["Clc1ccc2c(NCCCCNc3nc(N4CCOCC4)nc4ccccc34)ccnc2c1", "µM", "=", 7.66],
  ["C[C@]12CC[C@H]3[C@@H](CC=C4C[C@@H](N5CCCC5)CC[C@@]43C)[C@@H]1C/C(=C\\c1ccc([N+](=O)[O-])cc1)[C@@H]2O", "µM", "=", 40.3],
  ["C[C@]12CC[C@H]3[C@@H](CCC4=CC(=O)CC[C@@]43C)[C@]1(O)CC[C@]2(O)C(=O)CO", "µM", ">", 100]
]}

----------
System: SK-MEL-5 melanoma
assayRemarks: NCI tumour cell line growth inhibition, 48 h; in the data active = GI50 below about 0.43 µM; inactive = the rest
Possible outcomes: yes (1) = active, no (0) = inactive

{"columns": ["compound", "measuredTarget", "answerLabel"],
 "data": [
  ["CCn1c(-c2nonc2N)nc2cnc(Oc3cccc(NC(=O)c4ccc(OCCN5CCOCC5)cc4)c3)cc21", "SK-MEL-5 melanoma", "no (0)"],
  ["CCCCCCCCCCCC(c1ccccc1)[N+](C)(C)C (stereo not drawn)", "SK-MEL-5 melanoma", "no (0)"],
  ["Cc1cc2c(cc1Cl)SC(=Nc1ccc(Cl)cc1)N(S(=O)(=O)c1ccc(Br)s1)S2(=O)=O", "SK-MEL-5 melanoma", "no (0)"],
  ["CCCCCOC(=O)c1c(C)[nH]c(/C=C2\\N=C(c3ccc[nH]3)C=C2OC)c1C", "SK-MEL-5 melanoma", "yes (1)"],
  ["COC1C(OC(=O)/C=C/C=C/C=C/C=C/C(=O)O)CCC2(CO2)C1C1(C)OC1CC=C(C)C (stereo not drawn)", "SK-MEL-5 melanoma", "yes (1)"],
  ["CN1CCN(c2cc(F)c(NC3=C(Cl)C(=O)c4ncccc4C3=O)c(F)c2)CC1", "SK-MEL-5 melanoma", "no (0)"],
  ["CCCN1CCC(Oc2cc(Nc3nc(Nc4cccc(F)c4C(N)=O)c4cc[nH]c4n3)c(OC)cc2Cl)CC1", "SK-MEL-5 melanoma", "no (0)"],
  ["C=CCn1c(SCC(=O)Nc2ccc(C(=O)/C=C/c3cc(OC)c(OC)c(OC)c3)cc2)nnc1-c1cc(OC)c(OC)c(OC)c1", "SK-MEL-5 melanoma", "no (0)"],
  ["CN1CCN(CCCOC(=O)c2c3c(n4ccccc24)C(=O)c2ncccc2C3=O)CC1", "SK-MEL-5 melanoma", "yes (1)"],
  ["CCN(Cc1ccccc1)c1ccc(/C=C2\\COc3ccccc3C2=O)cc1", "SK-MEL-5 melanoma", "no (0)"],
  ["CN1CCC2(CC1)C(=O)Nc1cc(NC(=O)c3ccc4c(c3)C[C@@H]3C(C)(C)[C@H](O)[C@H](F)C[C@@]3(C)O4)ccc12", "SK-MEL-5 melanoma", "no (0)"],
  ["N#Cc1nc2cc(Cl)c(Cl)cc2nc1-c1ccc(Cl)cc1", "SK-MEL-5 melanoma", "no (0)"],
  ["O=c1[nH]c(=O)n(Cc2ccc(C34CC5CC(CC(C5)C3)C4)c(O)c2)cc1F", "SK-MEL-5 melanoma", "no (0)"],
  ["Nc1nc(N)c2cc(S(=O)(=O)c3cccc(C(F)(F)F)c3)ccc2n1", "SK-MEL-5 melanoma", "no (0)"],
  ["Clc1ccc2c(NCCCCNc3nc(N4CCOCC4)nc4ccccc34)ccnc2c1", "SK-MEL-5 melanoma", "no (0)"],
  ["COc1ccccc1C1C(C#N)=C(N)SC(N)=C1C#N", "SK-MEL-5 melanoma", "no (0)"],
  ["CC[O-].CC[O-].[O-]c1ccccc1C=NC12CC3CC(CC(C3)C1)C2.[O-]c1ccccc1C=NC12CC3CC(CC(C3)C1)C2.[Ti+4]", "SK-MEL-5 melanoma", "no (0)"],
  ["CCN(CC)CCN1C(=O)C2C3C(C)=CC(OC(C)=O)(CC3C)C2C1=O (stereo not drawn)", "SK-MEL-5 melanoma", "no (0)"]
]}

Taken from PubChem BioAssay (NCI).
